- studyTarget: HDAC9 enzyme (Homo sapiens, UniProt Q9UKV0)
- Construct: transducing full length HDAC9 gene into Sf-9 insect cells; made in house; host or cells: Sf-9 insect cells
- Sequence (Q9UKV0 whole entry, species assumed): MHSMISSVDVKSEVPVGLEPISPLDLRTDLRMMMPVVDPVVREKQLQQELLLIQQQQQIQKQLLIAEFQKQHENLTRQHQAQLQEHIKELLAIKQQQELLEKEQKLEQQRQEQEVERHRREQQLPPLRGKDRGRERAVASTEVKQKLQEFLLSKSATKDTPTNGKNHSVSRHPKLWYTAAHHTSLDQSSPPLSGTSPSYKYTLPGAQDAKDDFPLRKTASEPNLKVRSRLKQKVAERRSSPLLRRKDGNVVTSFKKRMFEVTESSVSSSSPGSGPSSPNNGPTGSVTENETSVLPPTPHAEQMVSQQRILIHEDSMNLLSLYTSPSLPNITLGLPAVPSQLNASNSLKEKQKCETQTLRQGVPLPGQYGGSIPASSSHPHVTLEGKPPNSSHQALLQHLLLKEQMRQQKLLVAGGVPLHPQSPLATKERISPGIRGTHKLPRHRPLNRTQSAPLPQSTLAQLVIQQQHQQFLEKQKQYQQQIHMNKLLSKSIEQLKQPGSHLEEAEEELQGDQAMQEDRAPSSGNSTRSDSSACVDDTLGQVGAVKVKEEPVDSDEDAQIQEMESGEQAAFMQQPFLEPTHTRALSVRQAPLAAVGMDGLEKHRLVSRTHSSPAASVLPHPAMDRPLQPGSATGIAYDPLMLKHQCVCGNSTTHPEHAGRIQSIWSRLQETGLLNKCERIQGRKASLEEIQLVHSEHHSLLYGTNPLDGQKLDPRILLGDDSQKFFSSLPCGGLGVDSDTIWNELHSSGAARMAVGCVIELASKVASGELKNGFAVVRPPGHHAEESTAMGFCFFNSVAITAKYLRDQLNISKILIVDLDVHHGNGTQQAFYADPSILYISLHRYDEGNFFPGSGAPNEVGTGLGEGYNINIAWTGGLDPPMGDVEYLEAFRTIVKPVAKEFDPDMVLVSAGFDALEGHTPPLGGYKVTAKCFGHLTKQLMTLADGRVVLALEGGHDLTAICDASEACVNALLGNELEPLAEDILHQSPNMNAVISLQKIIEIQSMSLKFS
- assayComment: HDAC9 Enzyme Inhibitory Assay (HDAC-Glo class IIa)
- Assay type: biochemical
- protocolConditions: 1 μM test compound; wells without enzyme = 100% inhibition; 1 µM
assayMetric: HDAC9 inhibitory rate (%) (1 μM)

Example compounds with recorded HDAC9 inhibitory rate (%) (1 μM):
O=C(N[C@@H]1CCOC[C@@H]1N1Cc2ccc(-c3noc(C(F)(F)F)n3)cc2C1=O)C1CC1(F)F (single isomer, unassigned) [Example 212]: 58
CC1(C(=O)N[C@@H]2CCCC[C@H]2N2Cc3ccc(-c4noc(C(F)(F)F)n4)cc3C2=O)CC1(F)F (stereo partly shown) [Example 171]: 67
O=C1c2cc(-c3noc(C(F)(F)F)n3)ccc2CN1[C@@H]1CCOC[C@H]1c1ccccc1 (relative stereo) [Example 5]: 95
O=C1c2cc(-c3noc(C(F)(F)F)n3)ccc2CN1[C@@H]1CCOC[C@H]1c1ccccc1 (relative stereo) [Example 35]: 91
O=C(N[C@H]1CCOC[C@H]1N1Cc2ccc(-c3noc(C(F)(F)F)n3)cc2C1=O)C1CC1(F)F (single isomer, unassigned): 97

[A] CC(CO)(CCl)C(=O)N[C@@H]1CCCC[C@H]1N1Cc2ccc(-c3noc(C(F)(F)F)n3)cc2C1=O (relative stereo)
[B] O=C(N[C@@H]1CCOC[C@@H]1N1Cc2ccc(-c3noc(C(F)(F)F)n3)cc2C1=O)C1CC1(F)F (single isomer, unassigned) [Example 211]
Q: Which is greater in HDAC9 inhibitory rate (%) (1 μM), the first item A or the second item B ? The response must carry the label of the picked entry.
Ans: A

[I] O=C1CCCN1[C@@H]1CCOC[C@H]1N1Cc2ccc(-c3noc(C(F)(F)F)n3)cc2C1=O [Example 178]
[II] O=C(N[C@@H]1CCCC[C@H]1N1Cc2ccc(-c3noc(C(F)(F)F)n3)cc2C1=O)N1CC2CC1CO2 (stereo partly shown)
Q: Which is greater in HDAC9 inhibitory rate (%) (1 μM), the first item I or the second item II ? The response must carry the label of the picked entry.
Ans: I
(I: 61%, II: 15%)
